Test system: Aβ40 in conditioned medium of cells stably expressing Amyloid Precursor Protein (APP)
protocol: In vitro BACE cell-based assay (Aβ40 in conditioned medium, sandwich ELISA)
details: Homo sapiens, HEK293, average IC50; read-out: HEK cell assay
Listed here: items and their measured pIC50.
Remember the convention: pIC50 equals -log10 of concentration in molar.

Reference set (5 entries):
>>> numeric_value("COc1ncc(Cl)cc1-c1ccc2c(c1)[C@@]1(COC(N)=N1)c1cc(C3=CCOCC3)ncc1O2")
7.83
>>> numeric_value("COc1ccc(F)c(-c2ccc3c(c2)[C@@]2(COC(N)=N2)c2cc(C4=CCOCC4)cnc2O3)c1")
7.81
>>> numeric_value("CC1(C#Cc2cc3c(cn2)Oc2ccc(-c4cncc(F)c4)cc2[C@@]32COC(N)=N2)COC1")
7.34
>>> numeric_value("Cn1cc(-c2cnc3c(c2)[C@]2(COC(N)=N2)c2c(ccc(-c4cccnc4F)c2F)O3)cn1")
7.86
>>> numeric_value("NC1=N[C@@]2(CO1)c1cc(-c3cccnc3F)ccc1Oc1cnc(-c3ccnc(O)c3)cc12")
5.59

Given item NC1=N[C@@]2(CO1)c1cc(-c3cnccn3)ccc1Oc1c(F)cc(OCC3CCOCC3)cc12 , the value recorded as its pIC50 is 7.47

# compound NC1=N[C@@]2(CO1)c1cc(-c3cccnc3F)ccc1Oc1c(F)cc(C3=CCCOC3)cc12 ; its pIC50 = 8.49

* * *

In this section we review reported inhibition in vivo at 3 mg/kg values for a set of compounds.
System: Abeta 40 in cerebrospinal fluid (CSF) and brain
protocol: In vivo inhibition of beta-secretase (Abeta 40 reduction in CSF and brain)
details: rat, brain, Abeta 40, 3 mpk, after 4 hrs; read-out: Brain A-beta reduction % at 3 mpk

>>> result("CC#Cc1cncc(-c2ccc3c(c2)[C@@]2(COC(N)=N2)c2cc(C4=CCOCC4)cnc2O3)c1 [Example 942]")
"42%"

Noted for CC(C)(F)COc1cc(F)c2c(c1)[C@]1(COC(N)=N1)c1cc(-c3cncnc3)c(F)cc1O2 [Example 668] : its inhibition in vivo at 3 mg/kg reads 46%

Lab book: inhibition in vivo at 3 mg/kg of NC1=N[C@@]2(CO1)c1cc(-c3cncc(F)c3)ccc1Oc1c2cc(N2CCC(F)(F)C2)nc1F [Example 922] noted as 57%

* * *

study_target: Beta Secretase enzyme (BACE) (Homo sapiens, UniProt P56817)
Sequence (P56817 46-501, species assumed): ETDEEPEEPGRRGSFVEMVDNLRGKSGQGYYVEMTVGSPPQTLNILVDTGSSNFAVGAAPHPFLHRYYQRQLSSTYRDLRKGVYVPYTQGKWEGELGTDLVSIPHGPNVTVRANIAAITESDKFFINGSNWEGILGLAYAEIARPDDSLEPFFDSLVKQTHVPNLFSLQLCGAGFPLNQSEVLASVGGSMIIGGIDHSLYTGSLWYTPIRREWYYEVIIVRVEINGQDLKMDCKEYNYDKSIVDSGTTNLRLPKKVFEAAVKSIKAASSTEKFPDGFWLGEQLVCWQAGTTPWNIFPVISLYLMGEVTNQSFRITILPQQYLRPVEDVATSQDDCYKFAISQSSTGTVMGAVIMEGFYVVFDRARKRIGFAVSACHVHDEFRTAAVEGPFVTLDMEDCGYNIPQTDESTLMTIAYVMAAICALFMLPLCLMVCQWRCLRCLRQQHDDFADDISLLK
protocol: In vitro enzymatic BACE FRET (fluorescence resonance energy transfer) assay
Type: biochemical
details: average IC50, enzyme assay; read-out: BACE 1 FRET assay
Procedure: In Vitro Enzymatic Bace Fret (Fluorescence Resonance Energy Transfer) Assay (Enzyme Assay Data in the Example Table I) The assay buffer used in this screen is 0.05 M acetate, pH 4.2, 10% DMSO final, 100 uM genapol (which is a nonionic detergent, below its Critical Micelle Concentration). […] The FRET assay is terminated with by addition of Tris buffer, which raises the pH to neutrality, and the fluorescence is determined. […]
pIC50: −log10 of the molar value.
Decide using pIC50: a value greater than or equal to 8 is Fulfilled, a smaller one is Not fulfilled.

The following compounds have reported results that may help.
>>> label_value("NC1=N[C@@]2(CO1)c1cc(-c3ccc(F)cc3)ccc1Oc1cnc(-c3ccnc(F)c3)cc12 [Example 395]")
"Not fulfilled"
>>> label_value("COc1cc(F)c2c(c1)[C@]1(CSC(N)=N1)c1cc(-c3cccnc3F)ccc1O2 [Example 608]")
"Fulfilled"
>>> label_value("CC1(C#Cc2cc3c(cc2OC(F)(F)F)Oc2ccc(-c4cccnc4F)cc2[C@@]32COC(N)=N2)COC1 [Example 986]")
"Not fulfilled"
>>> label_value("Cc1ccn(-c2cc(F)c3c(c2)[C@]2(COC(N)=N2)c2cc(-c4cccnc4)ccc2O3)n1 [Example 633]")
"Fulfilled"
>>> label_value("COC[C@H]1SC(N)=NC12c1cc(-c3cccnc3F)ccc1Oc1c(F)cc(OC)cc12 (stereo partly shown) [Example 1092]")
"Fulfilled"

Now let's try a different one.
Exercise: Check the entry NC1=N[C@@]2(CO1)c1cc(-c3cccc(C(F)(F)F)c3)ccc1Oc1cnc(C3=CCOCC3)cc12 [Example 145] : does pIC50 equal or exceed 8?
Key: Fulfilled

* * *

# IC50 values compiled below
System: Aβ40 in conditioned medium of cells stably expressing Amyloid Precursor Protein (APP)
protocol: In vitro BACE cell-based assay (Aβ40 in conditioned medium, sandwich ELISA)
details: Homo sapiens, HEK293, average IC50; read-out: HEK cell assay
State just the number; it will be interpreted in nM.

>>> numeric_value("NC1=N[C@@]2(CO1)c1cc(-c3cnccc3F)ccc1Oc1ncc(C3=CCOCC3)cc12")
24.6
>>> numeric_value("Cc1ncncc1-c1ccc2c(c1)[C@@]1(COC(N)=N1)c1cc(C3=CCOCC3)ncc1O2")
93
>>> numeric_value("Cc1cnccc1-c1cc2c(cn1)Oc1ccc(-c3cccnc3F)cc1[C@@]21COC(N)=N1")
291
>>> numeric_value("Cn1cc(-c2cc3c(cn2)Oc2ccc(-c4cncc(Cl)c4)cc2[C@@]32COC(N)=N2)cn1")
7.4
>>> numeric_value("CC1(C#Cc2cnc3c(c2)[C@]2(COC(N)=N2)c2cc(-c4cnccn4)ccc2O3)COC1")
14.5

Summary for this compound, CC1(C)CC(c2cc3c(cn2)Oc2ccc(-c4cncc(F)c4)cc2[C@@]32COC(N)=N2)=CCO1 : IC50 is 10.7

So, CC(C)(C)C#Cc1cc2c(nc1F)Oc1ccc(-c3cccnc3F)cc1C21COC(N)=N1 (stereo not drawn) ? Its IC50 was 21.4

The reported value for NC1=N[C@@]2(CO1)c1cc(C#CC3CC3)ccc1Oc1ncc(N3CCC(F)(F)CC3)cc12 in terms of IC50 is 27.1

Just so you know, measured IC50 for NC1=N[C@@]2(CO1)c1cc(C#CC3CC3)ccc1Oc1ncc(N3CCC(F)(F)C3)cc12 came out at 14.3

* * *

Each entry below lists one item and its recorded pIC50 value.
study_target: Beta Secretase enzyme (BACE) (Homo sapiens)
protocol: In vitro enzymatic BACE FRET (fluorescence resonance energy transfer) assay
Assay type: biochemical
details: average IC50, enzyme assay; read-out: BACE 1 FRET assay
Kindly note that pIC50 refers to -log10 of the concentration in mol/L and answer with the value alone.

Check out these entries, answers already filled in.
>>> numeric_value("CC1(C#Cc2cc3c(nc2F)Oc2ccc(-c4cccnc4F)cc2C32COC(N)=N2)COC1 (stereo not shown)")
9.10
>>> numeric_value("CC1(C#Cc2cnc3c(c2)[C@]2(COC(N)=N2)c2cc(-c4cccc(C#N)c4)ccc2O3)COC1")
8.96
>>> numeric_value("NC1=N[C@]2(CO1)c1cc(-c3cccc(Cl)c3)ccc1Oc1cnc(N3CCC(F)(F)C3)cc12")
7.60
>>> numeric_value("NC1=N[C@@]2(CO1)c1cc(-c3cnccn3)ccc1Oc1c(F)cc(N3CCOCC3)cc12")
8.28
>>> numeric_value("COc1ncc(-c2cc(F)c3c(c2)[C@]2(COC(N)=N2)c2cc(-c4cccnc4F)ccc2O3)cn1")
8.57

# compound CC#Cc1cncc(-c2ccc3c(c2)C2(COC(N)=N2)c2cc(C4CCOCC4)nc(F)c2O3)c1 (stereo not shown) ; its pIC50 = 9.15

// pIC50 value for COC(C)(C)COc1cnc2c(c1)[C@]1(COC(N)=N1)c1cc(-c3cccc(F)c3F)ccc1O2 : 8.28

What the record says about CC#Cc1cncc(-c2cnc3c(c2)[C@]2(COC(N)=N2)c2cc(OC)ccc2O3)c1 : pIC50 is 5.32

Summary for this compound, CC(C)(C)COc1ccc2c(c1)C1(COC(N)=N1)c1cc(C3CCCOC3)ccc1O2 (stereo not shown) : pIC50 is 7.72

Note to self: pIC50 recorded for Cc1ccc(-c2cc(F)c3c(c2)[C@]2(COC(N)=N2)c2cc(OCC(C)(C)C#N)ccc2O3)cn1 was 8.30

* * *

Test system: Aβ40 in conditioned medium of cells stably expressing Amyloid Precursor Protein (APP)
protocol: In vitro BACE cell-based assay (Aβ40 in conditioned medium, sandwich ELISA)
details: Homo sapiens, HEK293, read-out: HEK cell assay (uM)
Readings of IC50 for the listed molecules
The reply should contain only the number, in µM.

>>> numeric_value("NC1=N[C@@]2(CO1)c1cc(-c3cccnc3F)ccc1Oc1cnc(N3CC[C@H](F)C3)cc12")
0.0096
>>> numeric_value("NC1=N[C@@]2(CO1)c1cc(-c3cccnc3F)ccc1Oc1cnc(N3CC[C@@H](F)C3)cc12")
0.0049

We next turn to a different molecule, shown below.
Record NC1=N[C@@]2(CO1)c1cc(-c3cccnc3F)ccc1Oc1cnc([C@@H]3CCCOC3)cc12 , field IC50: 0.123

* * *

study_target: Beta Secretase enzyme (BACE) (Homo sapiens, UniProt P56817)
protocol: In vitro enzymatic BACE FRET (fluorescence resonance energy transfer) assay
Format: biochemical
details: average IC50, enzyme assay; read-out: BACE 1 FRET assay
// values below are reported pIC50
Reminder that pIC50 is minus the log10 of a molar concentration.

For orientation, consider the following solved cases.
>>> numeric_value("NC1=N[C@@]2(CO1)c1cc(-c3c(F)ccnc3F)ccc1Oc1c(F)cc(-c3ncccn3)cc12")
9.30
>>> numeric_value("CC1(C#Cc2cnc3c(c2)[C@@]2(COC(N)=N2)c2c(ccc(-c4cncnc4)c2F)O3)COC1")
7.03
>>> numeric_value("Cc1cnc(F)c(-c2ccc3c(c2)[C@@]2(COC(N)=N2)c2cc(C4=CCOCC4)ccc2O3)c1")
8.25
>>> numeric_value("CC1(C)CC(c2cnc3c(c2)[C@]2(COC(N)=N2)c2c(ccc(-c4cccnc4F)c2F)O3)=CCO1")
9.15
>>> numeric_value("COc1cccc(COc2ccc3c(c2)[C@@]2(COC(N)=N2)c2cc(-c4cccnc4)cnc2O3)c1")
7.61
>>> numeric_value("NC1=N[C@@]2(CO1)c1cc(-c3cccnc3F)ccc1Oc1c(F)cc(-c3ccnnc3)cc12")
9.10

The compound N#Cc1ncccc1-c1ccc2c(c1)[C@@]1(COC(N)=N1)c1cc(Cl)ncc1O2 showed pIC50 equal to 6.17
